Values from ChEMBL document CHEMBL4689842

Measured Population Membrane Permeable-Phenotype (%), listed per entry.
Test system: Fibroblast
ASSAY OVERVIEW: Multiplex assay against human fibroblast
Format: toxicity, cell-based
CONDITION SET: 48 h, 10 µM, compound concentration 10 uM, replicate 1
PROPERTY NAME: Population Membrane Permeable-Phenotype (%)

compound=Nc1nc2c(c(N3CCNCC3)n1)CCC1=C2[C@@H]2CCCC[C@@H]2O1 recorded_result=6
compound="CCc1cc2c(cc1CC)CC(NC[C@H](O)c1ccc(O)c3[nH]c(=O)ccc13)C2 [INDACATEROL]" recorded_result=1
compound="CCC(=O)O[C@]1(C(=O)SCF)[C@H](C)C[C@H]2[C@@H]3C[C@H](F)C4=CC(=O)C=C[C@]4(C)[C@@]3(F)[C@@H](O)C[C@@]21C [FLUTICASONE PROPIONATE]" recorded_result=29
compound="O=C(O)c1ccc2cc(-c3ccc(O)c(C45CC6CC(CC(C6)C4)C5)c3)ccc2c1 [O-DEMETHYLATED ADAPALENE]" recorded_result=35
compound=CC(C)N1CCC(C)(C)c2cc(C#Cc3ccc(C(=O)O)cc3)ccc21 recorded_result=25
compound="CCn1c(-c2nonc2N)nc2cnc(Oc3cccc(NC(=O)c4ccc(OCCN5CCOCC5)cc4)c3)cc21 [GSK-269962A]" recorded_result=6
compound="CC(C)Oc1ccc(C(=O)N[C@H](CNC(=O)CN(C)C)Cc2ccc(-c3cn4cccc([C@H](C)O)c4n3)cc2)cc1Cl [GSK-923295A]" recorded_result=11
compound=C1=N/C2=N/c3ccc(OCCN4CCCC4)c(c3)COC/C=C\COCc3cccc(c3)C(=C1)N2 recorded_result=25
compound=COc1ccc(NS(=O)(=O)c2sc3ccc(Cl)cc3c2C)cc1N1CCNCC1.Cl recorded_result=10

###

Test system: HEK-293T
ASSAY OVERVIEW: Multiplex assay against HEK293T
Format: toxicity, cell-based
CONDITION SET: human, 12 h, 10 µM, compound concentration 10 uM, replicate 2
PROPERTY NAME: Population Membrane Permeable-Phenotype (%)

chemical_string=CN(C)CCOc1ccc(-c2nc(-c3ccncc3)c(-c3ccc4c(c3)CC/C4=N\O)[nH]2)cc1 recorded_result=3
chemical_string=O=C(O)c1ccc2cc(-c3ccc(O)c(C45CC6CC(CC(C6)C4)C5)c3)ccc2c1 recorded_result=3
chemical_string=COc1cc2c(Nc3ccc(NC(=O)c4ccccc4)cc3)ncnc2cc1OCCCN1CCOCC1 recorded_result=2
chemical_string=C[C@@H]1CN(c2cc(-c3nn(C)c4ccc(OC5(C)CC5)cc34)ncn2)C[C@H](C)O1 recorded_result=2
chemical_string=Cc1cc2c(cc1N1C(=O)c3cccc4c(CCCO)ccc(c34)C1=O)n(C)c(=O)n2C recorded_result=11
chemical_string=CCOc1cc2ncc(C#N)c(Nc3ccc(OCc4cccc(F)c4)c(Cl)c3)c2cc1NC(=O)/C=C/CN(C)C recorded_result=11

###

Tested on: U2OS
ASSAY OVERVIEW: Multiplex assay against U2OS
Type: toxicity, cell-based
CONDITION SET: human, 12 h, 10 µM, compound concentration 10 uM, replicate 1
Measured Total Cell Count, listed per entry.
PROPERTY NAME: Total Cell Count

molecule=Cc1cc2c(cc1N1C(=O)c3cccc4c(CCCO)ccc(c34)C1=O)n(C)c(=O)n2C property_name="Total Cell Count" recorded_result=166
molecule=Cl.Cl.Nc1ncnc2c1c(-c1cccc(OCc3ccccc3)c1)cn2[C@H]1C[C@@H](CN2CCC2)C1 property_name="Total Cell Count" recorded_result=135
molecule=COc1cc2c(Nc3ccc(NC(=O)c4ccccc4)cc3)ncnc2cc1OCCCN1CCOCC1 property_name="Total Cell Count" recorded_result=215
molecule=Cc1cn(-c2cc(NC(=O)c3ccc4c(c3)CN(c3cncnc3)C[C@@H]4C)cc(C(F)(F)F)c2)cn1 property_name="Total Cell Count" recorded_result=198
molecule=c1ccc2oc(-c3csc(C4CCN(Cc5nc6ncccc6[nH]5)CC4)n3)cc2c1 property_name="Total Cell Count" recorded_result=205
molecule=COc1cc2c(NC3CCN(C(C)C)CC3)nc(N3CCC(F)(F)CC3)nc2cc1OCCCN1CCCC1 property_name="Total Cell Count" recorded_result=181
molecule=Nc1nc2c(c(N3CCNCC3)n1)CCC1=C2[C@@H]2CCCC[C@@H]2O1 property_name="Total Cell Count" recorded_result=135
molecule="CNC(=O)c1cc(Oc2ccc(NC(=O)Nc3cc(C(C)(C)C)nn3-c3ccc4ncccc4c3)c(F)c2)ccn1 [REBASTINIB]" property_name="Total Cell Count" recorded_result=196
molecule="CC(C)(C)c1cnc(CSc2cnc(NC(=O)C3CCNCC3)s2)o1 [BMS-387032]" property_name="Total Cell Count" recorded_result=144
molecule="CN(C)CCOc1ccc(-c2nc(-c3ccncc3)c(-c3ccc4c(c3)CC/C4=N\\O)[nH]2)cc1 [SB590885]" property_name="Total Cell Count" recorded_result=149
molecule=Cl.Cl.NC1(c2ccc(-c3nc4ccn5c(=O)[nH]nc5c4cc3-c3ccccc3)cc2)CCC1 property_name="Total Cell Count" recorded_result=190
